// data source = ChEMBL document CHEMBL5724806

# Procedure details: The drug is tested on the gut metagenome community of A-03 with ENA study accession number: PRJEB31790 for biotransformation under microaerobic condition. The drug concentrations were measured over 7 timepoints collected between 0 and 12 hours of incubation by liquid-chromatography-coupled mass spectrometry (LC–MS)
# Format: ADME
# Set-up: dose 5 uM, timepoint 0, 0.75, 1.5, 3, 6, 9, 12 hours
# Protocol conditions: 5 µM
Value kind: Bacterial Biotransformation

Previously resolved entries follow.
Molecule: C[C@]12CCC(=O)C=C1CC[C@@H]1[C@@H]2C(=O)C[C@@]2(C)[C@H]1CC[C@]2(O)C(=O)CO
Bacterial Biotransformation: Compound metabolized
//
Molecule: CN(Cc1cnc2nc(N)nc(N)c2n1)c1ccc(C(=O)N[C@@H](CCC(=O)O)C(=O)O)cc1 [METHOTREXATE]
Bacterial Biotransformation: Compound NOT metabolized
//
Molecule: CCOc1nc2cccc(C(=O)O)c2n1Cc1ccc(-c2ccccc2-c2nnn[nH]2)cc1
Bacterial Biotransformation: Compound NOT metabolized
//
Molecule: CCOC(=O)[C@H](CCc1ccccc1)N[C@@H](C)C(=O)N1[C@H](C(=O)O)C[C@@H]2CCC[C@@H]21
Bacterial Biotransformation: Compound NOT metabolized
//
Molecule: C[C@]12C=CC(=O)C=C1CC[C@@H]1[C@@H]2C(=O)C[C@@]2(C)[C@H]1CC[C@]2(O)C(=O)CO
Bacterial Biotransformation: Compound metabolized
//
Molecule: C[C@]12CCC(=O)C=C1CC[C@@H]1[C@@H]2[C@@H](O)C[C@@]2(C)[C@H]1CC[C@]2(O)C(=O)CO [HYDROCORTISONE]
Bacterial Biotransformation: Compound metabolized
//
Molecule: CCCC1O[C@@H]2C[C@H]3[C@@H]4CCC5=CC(=O)C=C[C@]5(C)[C@H]4[C@@H](O)C[C@]3(C)[C@]2(C(=O)CO)O1 (stereo not given in full) [BUDESONIDE]
Bacterial Biotransformation: Compound metabolized
//
Molecule: C[C@H]1C[C@H]2[C@@H]3CCC4=CC(=O)C=C[C@]4(C)[C@@]3(F)[C@@H](O)C[C@]2(C)[C@@]1(O)C(=O)CO
Bacterial Biotransformation: Compound NOT metabolized

# Bacterial Biotransformation lookup, item NS(=O)(=O)c1cc(C(=O)O)c(NCc2ccco2)cc1Cl [FUROSEMIDE]
Compound NOT metabolized

# Bacterial Biotransformation lookup, item `CNC(=C[N+](=O)[O-])NCCSCc1ccc(CN(C)C)o1`
Compound NOT metabolized

# Bacterial Biotransformation lookup, item `Cn1cnc([N+](=O)[O-])c1Sc1ncnc2nc[nH]c12`
Compound metabolized

# Bacterial Biotransformation lookup, item `C[C@]12C=CC(=O)C=C1CC[C@@H]1[C@@H]2[C@@H](O)C[C@@]2(C)[C@H]1CC[C@]2(O)C(=O)CO`
Compound metabolized

# Bacterial Biotransformation lookup, item `CO[C@H]1C[C@@H]2CC[C@@H](C)[C@@](O)(O2)C(=O)C(=O)N2CCCC[C@H]2C(=O)O[C@H]([C@H](C)C[C@@H]2CC[C@@H](O)[C@H](OC)C2)CC(=O)[C@H](C)/C=C(\C)[C@@H](O)[C@@H](OC)C(=O)[C@H](C)C[C@H](C)/C=C/C=C/C=C/1C`
Compound metabolized

# Bacterial Biotransformation lookup, item `C[C@H]1C[C@@H]2[C@H]([C@@H](O)C[C@@]3(C)[C@H]2CC[C@]3(O)C(=O)CO)[C@@]2(C)C=CC(=O)C=C12`
Compound metabolized

# Bacterial Biotransformation lookup, item `CCC(C)(C)C(=O)O[C@H]1C[C@@H](C)C=C2C=C[C@H](C)[C@H](CC[C@@H]3C[C@@H](O)CC(=O)O3)[C@H]21`
Compound NOT metabolized

---

# Procedure details: The drug is tested on Bacteroides uniformis strain: DSM6597 for biotransformation under anaerobic condition. The drug concentrations were measured over 6 timepoints collected between 0 and 12 hours of incubation by liquid-chromatography-coupled mass spectrometry (LC–MS)
# Type: ADME
# Parameters: dose 5 uM, timepoint 0, 1.5, 3, 6, 9, 12 hours
# Protocol conditions: 5 µM
Value kind: Bacterial Biotransformation

Previously resolved entries follow.
Compound: Cn1cnc([N+](=O)[O-])c1Sc1ncnc2nc[nH]c12
Bacterial Biotransformation: Compound metabolized
--
Compound: C=CC[C@@H]1/C=C(\C)C[C@H](C)C[C@H](OC)[C@H]2O[C@@](O)(C(=O)C(=O)N3CCCC[C@H]3C(=O)O[C@H](/C(C)=C/[C@@H]3CC[C@@H](O)[C@H](OC)C3)[C@H](C)[C@@H](O)CC1=O)[C@H](C)C[C@@H]2OC.O
Bacterial Biotransformation: Compound metabolized
--
Compound: CCOC(=O)C1=C(COCCN)NC(C)=C(C(=O)OC)C1c1ccccc1Cl (stereo not given)
Bacterial Biotransformation: Compound NOT metabolized
--
Compound: CC(C)NCC(O)COc1ccc(CC(N)=O)cc1 (stereo not given)
Bacterial Biotransformation: Compound NOT metabolized
--
Compound: C[C@@H](NCCCc1cccc(C(F)(F)F)c1)c1cccc2ccccc12
Bacterial Biotransformation: Compound NOT metabolized
--
Compound: CCC(C)(C)C(=O)O[C@H]1C[C@@H](C)C=C2C=C[C@H](C)[C@H](CC[C@@H]3C[C@@H](O)CC(=O)O3)[C@H]21
Bacterial Biotransformation: Compound NOT metabolized

# Bacterial Biotransformation lookup, item NS(=O)(=O)c1cc(C(=O)O)c(NCc2ccco2)cc1Cl [FUROSEMIDE]
Compound NOT metabolized

# Bacterial Biotransformation lookup, item `C[C@H]1C[C@H]2[C@@H]3CCC4=CC(=O)C=C[C@]4(C)[C@@]3(F)[C@@H](O)C[C@]2(C)[C@@]1(O)C(=O)CO`
Compound NOT metabolized

# Bacterial Biotransformation lookup, item `C[C@@H]1C[C@H]2[C@@H]3CCC4=CC(=O)C=C[C@]4(C)[C@@]3(F)[C@@H](O)C[C@]2(C)[C@@]1(O)C(=O)CO`
Compound NOT metabolized

# Bacterial Biotransformation lookup, item CN(Cc1cnc2nc(N)nc(N)c2n1)c1ccc(C(=O)N[C@@H](CCC(=O)O)C(=O)O)cc1 [METHOTREXATE]
Compound NOT metabolized

---

# Procedure details: The drug is tested on Gemella haemolysans strain: DSM107751 for biotransformation under anaerobic condition. The drug concentrations were measured over 6 timepoints collected between 0 and 12 hours of incubation by liquid-chromatography-coupled mass spectrometry (LC–MS)
# Assay type: ADME
# Design: dose 5 uM, timepoint 0, 1.5, 3, 6, 9, 12 hours
# Protocol conditions: 5 µM
Value kind: Bacterial Biotransformation

Molecule: NS(=O)(=O)c1cc(C(=O)O)c(NCc2ccco2)cc1Cl [FUROSEMIDE]
Val: Compound NOT metabolized
--
Molecule: C[C@]12CCC(=O)C=C1CC[C@@H]1[C@@H]2C(=O)C[C@@]2(C)[C@H]1CC[C@]2(O)C(=O)CO
Val: Compound NOT metabolized
--
Molecule: C[C@]12C=CC(=O)C=C1CC[C@@H]1[C@@H]2[C@@H](O)C[C@@]2(C)[C@H]1CC[C@]2(O)C(=O)CO
Val: Compound NOT metabolized

---

# Procedure details: The drug is tested on the gut metagenome community of P-02 with ENA study accession number: PRJEB31790 for biotransformation under microaerobic condition. The drug concentrations were measured over 7 timepoints collected between 0 and 12 hours of incubation by liquid-chromatography-coupled mass spectrometry (LC–MS)
# Type: ADME
# Set-up: dose 5 uM, timepoint 0, 0.75, 1.5, 3, 6, 9, 12 hours
# Protocol conditions: 5 µM
Value kind: Bacterial Biotransformation

Molecule: C[C@]12CCC(=O)C=C1CC[C@@H]1[C@@H]2[C@@H](O)C[C@@]2(C)[C@H]1CC[C@]2(O)C(=O)CO [HYDROCORTISONE]
Val: Compound NOT metabolized
--
Molecule: C[C@]12C=CC(=O)C=C1CC[C@@H]1[C@@H]2[C@@H](O)C[C@@]2(C)[C@H]1CC[C@]2(O)C(=O)CO
Val: Compound metabolized
--
Molecule: NS(=O)(=O)c1cc(C(=O)O)c(NCc2ccco2)cc1Cl [FUROSEMIDE]
Val: Compound NOT metabolized
--
Molecule: COc1c(C)c2c(c(O)c1C/C=C(\C)CCC(=O)OCCN1CCOCC1)C(=O)OC2 [MYCOPHENOLATE MOFETIL]
Val: Compound metabolized

---

# Procedure details: The drug is tested on Lactobacillus fermentum strain: DSM20052 for biotransformation under microaerobic condition. The drug concentrations were measured over 6 timepoints collected between 0 and 12 hours of incubation by liquid-chromatography-coupled mass spectrometry (LC–MS)
# Format: ADME
# Parameters: dose 5 uM, timepoint 0, 1.5, 3, 6, 9, 12 hours
# Protocol conditions: limosilactobacillus fermentum, 5 µM

Compound: CCC(C)(C)C(=O)O[C@H]1C[C@@H](C)C=C2C=C[C@H](C)[C@H](CC[C@@H]3C[C@@H](O)CC(=O)O3)[C@H]21 [SIMVASTATIN]
Bacterial Biotransformation: Compound NOT metabolized

Compound: Cn1cnc([N+](=O)[O-])c1Sc1ncnc2nc[nH]c12 [AZATHIOPRINE]
Bacterial Biotransformation: Compound NOT metabolized

Compound: CCOC(=O)[C@H](CCc1ccccc1)N[C@@H](C)C(=O)N1[C@H](C(=O)O)C[C@@H]2CCC[C@@H]21
Bacterial Biotransformation: Compound NOT metabolized
